# Tested target: synthetic amylospheroid (synthetic ASPD) (UniProt P05067)
# Method description: SPR; biotinylated peptide on the chip, ASPD as ligand
Ends that are not written are not given here.
Reported values of pKd for individual entries
pKd field: float, defined as -log10 of concentration (mol/L).

Worked cases, answers included:
>  <Binder>
HLNWWHSWYPAR-biotin [C-terminal biotinylated AAT02 …]

>  <pKd>
7.08

$$$$
>  <Binder>
HFNWYNLWRVQY-biotin [C-terminal biotinylated AAT01 …]

>  <pKd>
7.24

$$$$

Query: Which measured pKd value corresponds to HLNWLSWFPSRH-biotin [C-terminal biotinylated AAT03 …] ?
Response: 7.05
